# Tested on: CAKI-1 renal
# assay.comment: NCI-60 one-dose screen, 48 h (100 = growth as untreated, 0 = no growth, -100 = all killed)
# condition.set: 10 µM unless noted
The panel holds about 83,000 compounds, 20% with a hit somewhere; the sample as a whole holds those more often.
value.type: growth (%)
Just the number please, in %, no unit attached.

{"columns": ["compound", "growth / %"],
 "data": [
  ["COc1ccc(-c2cc3cnc4ccccc4c3oc2=O)cc1", 89.7],
  ["O=C(CN1C(=O)S/C(=C\\C(Cl)=C\\c2ccccc2)C1=O)NCCCn1ccnc1", 50.5],
  ["Clc1ccc2c(NCCN3CCN(c4ccnc(N5CCCC5)n4)CC3)ccnc2c1", 27.7]
]}

growth in this record for `Nc1ccc(S(=O)(=O)c2ccc(N)cc2)cc1` : 86.6

Notebook: `COc1cc(/C=C/C(=O)c2ccc(NC(=O)CSc3nnc(-c4cc(-c5ccccc5)nc5ccccc45)n3-c3ccccc3)cc2)cc(OC)c1OC` , growth read as 72.4

growth reading for `N=C(N)c1ccc(-c2ccc(-c3ccc(F)cc3)s2)nc1` : 65.4

###

# System: RPMI-8226 leukemia
# assay.comment: NCI-60 one-dose screen, 48 h (100 = growth as untreated, 0 = no growth, -100 = all killed)
# condition.set: 10 µM unless noted
This is part of a sample that, as a whole, favours compounds with a hit. Of some 83,000 tested, about 20% had one in any assay. The source made the active and inactive calls. How the source made its calls: active means growth percent below 10; inactive means the rest.
value.type: growth

{"columns": ["molecule", "target.or.test.system", "growth"],
 "data": [
  ["COc1ccc(/C(C)=C(\\c2ccc(OCCN3CCOCC3)cc2)c2ccc(OC(=O)C3CCCCC3)cc2)cc1", "RPMI-8226 leukemia", "97.9% (inactive)"]
]}

The measured growth associated with `Cc1c(C(C)(C)O)cn2ncnc(Oc3ccc(NC(=O)Nc4ccc(Cl)c(C(F)(F)F)c4)cc3)c12` reads 37% (inactive)

Measured growth, `COc1ccc(C(=O)N/N=C/c2ccc(O)cc2O)cc1Nc1ccnc(C(F)(F)F)c1` : 41.7% (inactive)

Entry under test: `COc1ccc(-c2nc(Cl)c3c(C)nn(-c4ccc(F)cc4)c3n2)cc1` . Its growth was 102% (inactive)

Record COc1c(O)c(O)cc2c3c(oc12)CC(c1ccc2c(c1)OCO2)CC3=O (configuration not stated) . Reported growth: 62.5% (inactive)

# growth of `O=c1c(/C=C/c2ccco2)nnc2sc(Nc3ccc(Cl)cc3)nn12` = 101% (inactive)

Reported growth for `COC(=O)c1nc(-c2ccccc2)oc1S(=O)(=O)N(C)CCO` was 42.4% (inactive)

Per the records, this molecule ( C#CCOc1cccc(Nc2ncc3ncn(C4CCN(C(=O)CCl)C4)c3n2)c1 (configuration not stated) ) has growth equal to 44.1% [6.25 µM] (inactive)

The molecule identified as `COc1ccc(-c2cc(-c3cccnc3)nc3sc4c(Cl)nnnc4c23)cc1OC` registered its growth at 58% (inactive)

For this molecule ( `Clc1ccc2c(c1)N(c1ncnc3ccc(-c4cnc5[nH]ccc5c4)cc13)CC2` ), measured growth is 26% (inactive)

// growth lookup, molecule = O=C1N=c2ccccc2=C1c1sc(=S)n(C2CC(=O)N(c3ccc(Cl)cc3)C2=O)c1O (configuration not stated) , result: 103% (inactive)
